Molecular target: T1, LILRB2 (antigen in solution, Octet RED 96) (UniProt Q8N423 22-460, limits assumed)
T1 construct: also called LILRB2 solution
Assay: BLI (Octet RED 96), antibody on protein A biosensor, LILRB2 in solution
PROPERTY: pKd
Note on units: pKd is unitless, being -log10 of a concentration expressed in mol/L.

Task: Determine its reported pKd: B2-15 (antibody, V domains shown, also called B-15; B2-15_HC) VH: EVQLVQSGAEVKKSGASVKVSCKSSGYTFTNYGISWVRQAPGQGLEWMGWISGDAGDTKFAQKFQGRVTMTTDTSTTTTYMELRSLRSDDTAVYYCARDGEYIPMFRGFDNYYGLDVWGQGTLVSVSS VL: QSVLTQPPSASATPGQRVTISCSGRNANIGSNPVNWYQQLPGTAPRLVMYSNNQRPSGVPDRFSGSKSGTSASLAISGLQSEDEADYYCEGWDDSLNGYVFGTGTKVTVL
Output: 7.72

Task: Determine its reported pKd: HCB2-10 (antibody, V domains shown, also called HCB2-10_HC; HCB2-10_LC) VH: QVQLVESGGGLVQPGGSLRLSCAASGFTFSNYAMSWVRQAPGKGLEWVSAISGSSISTYYADSVKGRFTISRDNSKNTLYLQMNSLRAEDTAVYYCASSGFGSFDYWGQGTLVTVSS VL: QPPSVSAAPRQRVTISCSGSSSNIGDNSVNWYQQLPGKAPKLLIYLDDLLPSGVSGRFSGSKSGTSASLVISGLQSEDEADYYCATWDDSLNGVVFGGGTKVTVL
Output: 8.06

Task: Determine its reported pKd: B2-17 (antibody, V domains shown, also called B2-17_HC; B2-17_LC) VH: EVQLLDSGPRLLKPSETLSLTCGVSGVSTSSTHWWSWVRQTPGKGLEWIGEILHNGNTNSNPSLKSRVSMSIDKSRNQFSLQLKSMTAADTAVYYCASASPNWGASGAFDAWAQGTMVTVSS VL: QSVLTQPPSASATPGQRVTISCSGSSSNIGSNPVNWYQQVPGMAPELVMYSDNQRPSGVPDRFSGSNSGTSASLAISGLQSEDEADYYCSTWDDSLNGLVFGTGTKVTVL
Output: 7.44
